- System: glycogen synthase kinase-3 (GSK3A per assay name; protocol says GSK3B)
- protocol notes: GSK3 binders on small-molecule microarrays, primary screen, biochemical, small-molecule microarray, 635 nm fluorescence, GSK3A (AID 1103); further: the record names both GSK3A and GSK3B
- condition notes: small-molecule microarray binding, fluorescence 635 nm; higher = more signal
Label rule, in plain words: composite z-score of 0.4 and up is 1, under 0.4 is -1.

Examples from the recorded data:
molecule	assigned label
COC(=O)C(CC#Cc1ccc2c(c1)[C@]1(C(=O)N2)[C@H](C(=O)N2CCCCCCC2)[C@H]2C(=O)O[C@H](c3ccccc3)[C@H](c3ccccc3)N2[C@@H]1c1ccc(O)cc1)C(=O)OC	-1
C=CCNC(=O)[C@H]1[C@@H]2C(=O)O[C@@H](c3ccccc3)[C@@H](c3ccccc3)N2[C@@H](c2ccc(O)cc2)[C@]12C(=O)Nc1ccc(C#CCNC(N)=O)cc12	-1
CCOC(=O)C1=CCC(c2cccc3ccccc23)N(S(=O)(=O)c2ccc(C)cc2)C1 (configuration not stated)	1
COC(=O)[C@H]1[C@@H]2COc3ccccc3[C@H]2N[C@H]1C(=O)OC	-1
CCCNC(=O)[C@@H]1c2ccccc2C(=O)N(Cc2cc(F)cc(C(F)(F)F)c2)[C@H]1c1ccc(CO)cc1	1

Attention now shifts to the item below.
Incoming: Assess whether reported composite z-score for O=C(N1CCCCC1)[C@@]1(CCS(=O)(=O)c2ccccc2)N=C(c2ccc(OCCCO)cc2)O[C@H]1c1ccccc1 sits at 0.4 or higher.
Outgoing: 1

====

- Tested on: Noggin (protein binding on small-molecule microarray)
- protocol notes: Noggin binders on small-molecule microarray, primary screen, biochemical, 635/667 nm fluorescence (AID 1095);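 further: score merges 667 nm feature fluorescence with signal to noise over triplicate slides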
- condition notes: 635 nm fluorescence, higher = more signal
Each item that follows carries a reported composite z-score.
API note: the answer field is a bare number with no unit suffix.

compound	composite z-score
CCN1C(C)=C(C(=O)OC)[C@@H](c2ccccc2)N2C(=O)[C@@]3(C(=O)OC)O[C@@]12[C@@H]1C(=O)N(C)C(=O)[C@@H]13	0.584
C=C[C@H](OC)[C@@H](OC(=O)Nc1ccc(SC)cc1)c1ccc(OC)c(O)c1	-0.878
CCN1C(C)=C(C(=O)OC)[C@@H](c2ccccc2)N2C(=O)[C@@]3(C(=O)OC)O[C@@]12[C@@H]1C(=O)N(c2ccccc2)C(=O)[C@@H]13	1.21
C[C@@H]1NC(=O)[C@H](Cc2ccccc2)NC(=O)[C@@]23C(=O)N[C@@H](Cc4ccccc4)C2[C@H](C)[C@@]2(C)O[C@H]2C3/C=C/C/C=C\CNC1=O (some centres not stated)	0.0939
CCCC=C(CCC)[C@@H](NS(=O)(=O)c1ccc(-c2ccccc2)cc1)c1ccc(C(=O)OC)cc1	-0.666

Incoming: For the compound CC(=O)NCCCC[C@@H]1NC(=O)[C@@H]2C[C@H](C(=O)NCCCCCCN(C)C)[C@H](c3ccc(O)cc3)N2C1=O , what composite z-score is on record?
Outgoing: 1.61

Incoming: For the compound C[C@H]1COC(=O)[C@H](Cc2ccccc2)NC(=O)[C@@H](C)COC(=O)[C@H](Cc2ccccc2)NC1=O , what composite z-score is on record?
Outgoing: 0.996

====

Each item that follows carries a reported composite z-score.
- target desc: Torsin-1A-interacting protein 2 (Homo sapiens) (UniProt Q8NFQ8)
- Sequence (Q8NFQ8 whole entry, looked up): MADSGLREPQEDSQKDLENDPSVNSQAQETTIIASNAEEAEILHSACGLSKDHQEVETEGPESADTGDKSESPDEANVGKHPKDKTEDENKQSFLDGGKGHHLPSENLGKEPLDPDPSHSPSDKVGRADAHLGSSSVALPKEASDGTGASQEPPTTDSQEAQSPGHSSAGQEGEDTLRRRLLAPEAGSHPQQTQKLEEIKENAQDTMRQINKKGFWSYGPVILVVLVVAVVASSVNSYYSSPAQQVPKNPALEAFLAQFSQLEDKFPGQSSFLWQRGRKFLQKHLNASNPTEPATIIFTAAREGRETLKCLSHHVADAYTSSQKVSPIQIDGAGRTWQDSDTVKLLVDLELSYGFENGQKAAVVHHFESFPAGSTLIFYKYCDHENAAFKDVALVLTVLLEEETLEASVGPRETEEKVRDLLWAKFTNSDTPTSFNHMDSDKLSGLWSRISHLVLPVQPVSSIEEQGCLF
- protocol notes: LULL1 binders on small-molecule microarray, primary screen, cell lysate, human LULL1 lysate, 635/667 nm fluorescence (AID 1092);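 further: probe is lysate of COS7 cells overexpressing human LULL1; score merges per-feature 667 nm fluorescence with signal-to-noise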
- condition notes: hLULL1 lysate binding, 635 nm fluorescence, higher = more signal
API note: the answer field is a bare number with no unit suffix.

item smiles	target desc	composite z-score
O=C(NCC(F)(F)F)[C@@H]1c2ccccc2C(=O)N(Cc2ccccc2Cl)[C@H]1c1ccc(CO)cc1	Torsin-1A-interacting protein 2 (Homo sapiens) (UniProt Q8NFQ8)	1.18
CC(C)(C)OC(=O)CC[C@]1(C(=O)N2CCCCC2)N=C(c2ccc(OCCCO)cc2)O[C@H]1c1ccccc1	Torsin-1A-interacting protein 2 (Homo sapiens) (UniProt Q8NFQ8)	3.48

Incoming: For the compound CO[C@H]1COC(=O)[C@H](C)COC(=O)[C@H](Cc2ccccc2)NC(=O)CC=C[C@H]1C , what composite z-score is on record?
Outgoing: -0.826
